Target: Pro-Link-tagged Human GLP-1R (human, UniProt P43220 24-463)
Test: cell-based or functional assay
Each entry below lists one item and its recorded hGLP1R B-Arrestin2 Rel EC50 value.

binder: XXEGTFTSDYSIXLDXKAQXAFIEYLIAGGPSSGAPPPS (D-Tyr1, Aib2, αMeL13, Orn16, K17 conjugated to (2-[2-(2-Amino-ethoxy)-ethoxy]-acetyl)2-(γ-Glu)-CO-(CH2)18-CO2H, Aib20, C-terminal amide (NH2)) [Example 346]
reading unit: nM
qualifier symbol: =
hGLP1R B-Arrestin2 Rel EC50: 3.25
--
binder: XXEGTFTSDYSIXLDKKAQXEFIEYLIAGGPSSGAPPPS (D-Tyr1, Aib2, αMeL13, K17 conjugated to (2-[2-(2-Amino-ethoxy)-ethoxy]-acetyl)2-(γ-Glu)-CO-(CH2)18-CO2H, Aib20, C-terminal amide (NH2)) [Example 290]
reading unit: nM
qualifier symbol: =
hGLP1R B-Arrestin2 Rel EC50: 23.8
--
binder: XXEGTFTSDYSIXLDEKAQXEFIEYLIAGGPSSGAPPPS (not fully specified; D-Tyr1, Aib2, αMeL13, K17 conjugated to (2-[2-(2-Amino-ethoxy)-ethoxy]-acetyl)2-(γ-Glu)-CO-(CH2)18-CO2H, Aib20, C-terminal amide (NH2)) [Example 342]
reading unit: nM
qualifier symbol: =
hGLP1R B-Arrestin2 Rel EC50: 35
--
binder: XXEGTXTSDYSILLDKKAQXAFIEYLIEGGPSSGAPPPS (D-Tyr1, Aib2, αMeF6, K17 conjugated to (2-[2-(2-Amino-ethoxy)-ethoxy]-acetyl)2-(γ-Glu)-CO-(CH2)18-CO2H, Aib20, C-terminal amide (NH2)) [Example 329]
reading unit: nM
qualifier symbol: =
hGLP1R B-Arrestin2 Rel EC50: 4.73
--
binder: FXEGTFTSDYSIXLDKKAQXEFIEYLIAGGPSSGAPPPS (not fully specified; Aib2, αMeL13, K17 conjugated to (2-[2-(2-Amino-ethoxy)-ethoxy]-acetyl)2-(γ-Glu)-CO-(CH2)18-CO2H, Aib20, C-terminal amide (NH2)) [Example 338]
reading unit: nM
qualifier symbol: =
hGLP1R B-Arrestin2 Rel EC50: 18.9
--
binder: XXEGTXTSDYSIXLDKKAQXEFIEYLIAGGPSSGAPPPS (D-Tyr1, Aib2, αMeF6, αMeL13, K17 conjugated to (2-[2-(2-Amino-ethoxy)-ethoxy]-acetyl)2-(γ-Glu)-CO-(CH2)18-CO2H, Aib20, C-terminal amide (NH2)) [Example 345]
reading unit: nM
qualifier symbol: =
hGLP1R B-Arrestin2 Rel EC50: 3.08
--
binder: YXEGTFTSDYSIXLDKKAQXEFIEYLIEGGPSSGAPPPS (Aib2, αMeL13, K17 conjugated to (2-[2-(2-Amino-ethoxy)-ethoxy]-acetyl)2-(γ-Glu)-CO-(CH2)18-CO2H, Aib20, C-terminal amide (NH2)) [Example 333]
reading unit: nM
qualifier symbol: =
hGLP1R B-Arrestin2 Rel EC50: 54.8
--
binder: XXEGTFTSDYSIXLDXKAQXEFIEYLIAGGPSSGAPPPS (D-Tyr1, Aib2, αMeL13, Orn16, K17 conjugated to (2-[2-(2-Amino-ethoxy)-ethoxy]-acetyl)-(γ-Glu)-CO-(CH2)18-CO2H, Aib20, C-terminal amide (NH2)) [Example 371]
reading unit: nM
qualifier symbol: =
hGLP1R B-Arrestin2 Rel EC50: 14.2
--
binder: XXEGTFTSDYSIXLDKKAQXAFVXYLIAGGPSSGAPPPS (D-Tyr1, Aib2, αMeL13, K17 conjugated to (2-[2-(2-Amino-ethoxy)-ethoxy]-acetyl)2-(γ-Glu)-CO-(CH2)18-CO2H, Aib20, D-Glu24, C-terminal amide (NH2)) [Example 361]
reading unit: nM
qualifier symbol: =
hGLP1R B-Arrestin2 Rel EC50: 269
--
binder: XXEGTFTSDYSIXLDKKAQXAFIEXLIAGGPSSGAPPPS (D-Tyr1, Aib2, αMeL13, K17 conjugated to (2-[2-(2-Amino-ethoxy)-ethoxy]-acetyl)-(γ-Glu)-CO-(CH2)18-CO2H, Aib20, αMeY25, C-terminal amide (NH2)) [Example 373]
reading unit: nM
qualifier symbol: =
hGLP1R B-Arrestin2 Rel EC50: 9.54
--
binder: XXEGTFTSDYSIXLDXKAQXAFIXYLIAGGPSSGAPPPS (D-Tyr1, Aib2, αMeL13, Orn16, K17 conjugated to (2-[2-(2-Amino-ethoxy)-ethoxy]-acetyl)2-(γ-Glu)-CO-(CH2)18-CO2H, Aib20, D-Glu24, C-terminal amide (NH2)) [Example 291]
reading unit: nM
qualifier symbol: >
hGLP1R B-Arrestin2 Rel EC50: 10000
--
binder: YXEGTFTSDYSIXLDEKAQXAFIEYLIEGGPSSG (Aib2, αMeL13, K17 conjugated to (2-[2-(2-Amino-ethoxy)-ethoxy]-acetyl)2-(γ-Glu)-CO-(CH2)16-CO2H, Aib20, C-terminal amide (NH2)) [Example 303]
reading unit: nM
qualifier symbol: =
hGLP1R B-Arrestin2 Rel EC50: 17.9
--
binder: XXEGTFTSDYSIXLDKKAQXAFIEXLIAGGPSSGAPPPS (D-Tyr1, Aib2, αMeL13, K17 conjugated to (2-[2-(2-Amino-ethoxy)-ethoxy]-acetyl)2-(γ-Glu)-CO-(CH2)16-CO2H, Aib20, αMeY25, C-terminal amide (NH2)) [Example 376]
reading unit: nM
qualifier symbol: =
hGLP1R B-Arrestin2 Rel EC50: 12.3

Attribution: patent US20220048967A1
